The measured values listed here are drawn from patent US20110189183A1.

Entries and their affinity values follow.
Measured on: Candida albicans (Cat. No. 10231, ATCC) whole cells (Candida albicans)
Measurement protocol: FACS, IgG on fixed cells
Recorded metric: affinity (nM)

Binder	Result value
1H12 IgG (antibody, V domains shown) VH: EVQLVESGGGLVKAGGSLILSCGVSNFRISAHTMNWVRRVPGGGLEWVASISTSSTYRDYADAVKGRFTVSRDDLEDFVYLQMHKMRVEDTAIYYCARKGSDRLSDNDPFDAWGPGTVVTVSP VL: GVVMTQSPSTLSASVGDTITITCRASQSIETWLAWYQQKPGKAPKLLIYKASTLKTGVPSRFSGSGSGTEFTLTISGLQFDDFATYHCQHYMPYRASFGQGTRVEIKR	10
A4F10 IgG (antibody, V domains shown) VH: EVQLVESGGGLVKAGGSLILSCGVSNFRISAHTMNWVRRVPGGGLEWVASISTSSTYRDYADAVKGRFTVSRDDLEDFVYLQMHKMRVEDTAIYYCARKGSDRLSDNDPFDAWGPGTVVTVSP VL: GVVMTQSPSTLSASVGDTITITCRASQSIETWLAWYQQKPGKAPKLLIYKASTLKTGVPSRFSGSGSGTEFTLTISGLQFDDFATYHCQHYTDHYGATFGQGTRVEIKR	50
A5G10 IgG (antibody, V domains shown) VH: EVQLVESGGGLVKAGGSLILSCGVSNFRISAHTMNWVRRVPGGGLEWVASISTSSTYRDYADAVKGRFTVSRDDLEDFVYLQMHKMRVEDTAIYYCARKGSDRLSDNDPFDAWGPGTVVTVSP VL: GVVMTQSPSTLSASVGDTITITCRASQSIETWLAWYQQKPGKAPKLLIYKASTLKTGVPSRFSGSGSGTEFTLTISGLQFDDFATYHCQHYRPHTGATFGQGTRVEIKR	50
A1E8 IgG (antibody, V domains shown) VH: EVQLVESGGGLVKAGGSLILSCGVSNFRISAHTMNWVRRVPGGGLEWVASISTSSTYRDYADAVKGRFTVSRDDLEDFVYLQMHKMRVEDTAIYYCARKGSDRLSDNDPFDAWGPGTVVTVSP VL: GVVMTQSPSTLSASVGDTITITCRASQSIETWLAWYQQKPGKAPKLLIYKASTLKTGVPSRFSGSGSGTEFTLTISGLQFDDFATYHCQHYTDHKGATFGQGTRVEIKR	50
A1G7 IgG (antibody, V domains shown) VH: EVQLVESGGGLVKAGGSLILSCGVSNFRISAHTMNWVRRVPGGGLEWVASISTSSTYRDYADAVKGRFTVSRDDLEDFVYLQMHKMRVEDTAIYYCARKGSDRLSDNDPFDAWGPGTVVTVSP VL: GVVMTQSPSTLSASVGDTITITCRASQSIETWLAWYQQKPGKAPKLLIYKASTLKTGVPSRFSGSGSGTEFTLTISGLQFDDFATYHCQHYTDHRGATFGQGTRVEIKR	50
P1F9 IgG (antibody, V domains shown) VH: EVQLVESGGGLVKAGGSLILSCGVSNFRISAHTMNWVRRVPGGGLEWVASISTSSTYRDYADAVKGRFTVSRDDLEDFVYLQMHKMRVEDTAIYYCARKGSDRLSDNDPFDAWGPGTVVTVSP VL: GVVMTQSPSTLSASVGDTITITCRASQSIETWLAWYQQKPGKAPKLLIYKASTLKTGVPSRFSGSGSGTEFTLTISGLQFDDFATYHCQHYRAHTGATFGQGTRVEIKR	23
